molecular target: Histamine H2 receptor (Homo sapiens, UniProt P25021)
Sequence (P25021 whole entry, the tested form may be a part): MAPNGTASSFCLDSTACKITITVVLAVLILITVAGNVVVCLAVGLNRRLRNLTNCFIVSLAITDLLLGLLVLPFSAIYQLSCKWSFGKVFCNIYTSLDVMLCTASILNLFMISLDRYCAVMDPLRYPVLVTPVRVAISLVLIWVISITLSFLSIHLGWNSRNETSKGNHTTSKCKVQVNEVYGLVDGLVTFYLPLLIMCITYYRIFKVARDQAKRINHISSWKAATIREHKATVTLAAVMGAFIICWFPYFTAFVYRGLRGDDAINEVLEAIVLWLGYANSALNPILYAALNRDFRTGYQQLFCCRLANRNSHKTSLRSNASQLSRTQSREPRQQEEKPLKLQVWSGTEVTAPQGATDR
Hi! Just check whether Kd is below 80 nM. Below gives rule met, equal or above gives rule not met.

For `CC1(C)C(/C=C/C=C/C=C2\c3ccccc3C(C)(C)N2CCCCCC(=O)NCCCCCCCCNC(=O)/N=C(\N)NCCCc2nnc(N)s2)=[N+](CCCCS(=O)(=O)[O-])c2ccccc21` , is the recorded Kd below the cut-off of 80 nM? rule not met

Param item: `CC1(C)C(/C=C/C=C/C=C2\c3ccccc3C(C)(C)N2CCCCCC(=O)NCCCCCCCCNC(=O)/N=C(\N)NCCCc2c[nH]cn2)=[N+](CCCCS(=O)(=O)[O-])c2ccccc21` rule met

Check `Cc1nc(N)sc1CCCN/C(N)=N/C(=O)NCCCCCCCCNC(=O)CCCCCN1/C(=C/C=C/C=C/C2=[N+](CCCCS(=O)(=O)O)c3ccccc3C2(C)C)c2cc(S(=O)(=O)[O-])ccc2C1(C)C` too. rule not met

Then this molecule: `Cc1nc(N)sc1CCCN/C(N)=N/C(=O)NCCCCCCCCCCNC(=O)CCCCCN1/C(=C/C=C/C=C/C2=[N+](CCCCS(=O)(=O)[O-])c3ccccc3C2(C)C)c2ccccc2C1(C)C` rule not met

What do you have for `Cc1nc(N)sc1CCCN/C(N)=N/C(=O)NCCCCCCCCNC(=O)CCCCCN1/C(=C/C=C/C=C/C2=[N+](CCCCS(=O)(=O)[O-])c3ccccc3C2(C)C)c2ccccc2C1(C)C` ? rule met

* * *

target: UniProt P25021; experiment: Agonist activity at human H2 receptor expressed in HEK293T-ARRB1 cells assessed as stimulation of beta-arrestin 1 recruitment by measuring maximum efficacy; format: functional, cell-based; settings: filed as agonist
measurement-label: Emax
I only need the number, thanks.

Recorded Emax for `Cc1nc(N)sc1CCCN/C(N)=N/C(=O)NCCCCCCNC(=O)CCCCCN1/C(=C/C=C/C=C/C2=[N+](C)c3ccccc3C2(C)C)c2ccccc2C1(C)C` , please? 0.57

Could you do the same for `Cc1nc(N)sc1CCCN/C(N)=N/C(=O)NCCCCCCCCNC(=O)CCCCCN1/C(=C/C=C/C=C/C2=[N+](CCCCS(=O)(=O)[O-])c3ccccc3C2(C)C)c2ccccc2C1(C)C` , please? 0.09

// query: `CC1(C)C(/C=C/C=C/C=C2\c3ccccc3C(C)(C)N2CCCCCC(=O)NCCCCCCCCNC(=O)/N=C(\N)NCCCc2nnc(N)s2)=[N+](CCCCS(=O)(=O)[O-])c2ccccc21` 0.55

Note, next up: `NCCc1c[nH]cn1` 1

Now the compound `CC1(C)C(/C=C/C=C/C=C2\c3ccccc3C(C)(C)N2CCCCCC(=O)NCCCCCCCCNC(=O)/N=C(\N)NCCCc2c[nH]cn2)=[N+](CCCCS(=O)(=O)[O-])c2ccccc21` 0.25

* * *

For each record, write down the corresponding log10 EC50.
target: Histamine H2 receptor (Homo sapiens); assay: Agonist activity at NlucN/mini-Gi protein-fused human H2R stably expressed in HEK293T cells assessed as induction of mini-Gi protein recruitment using furimazine as substrate measured for 45 mins by luminescence assay; assay type: functional, cell-based
Each number you see is log10 of EC50, and the unit inside the log is nM.

Query (compound): `CC1(C)C(/C=C/C=C/C=C2\c3ccccc3C(C)(C)N2CCCCCC(=O)NCCCCCCCCNC(=O)/N=C(\N)NCCCc2c[nH]cn2)=[N+](CCCCS(=O)(=O)[O-])c2ccccc21` ; field requested: log10 EC50 2.53

Try this compound too: `Cc1nc(N)sc1CCCN/C(N)=N/C(=O)NCCCCCCNC(=O)CCCCCN1/C(=C/C=C/C=C/C2=[N+](CCCCS(=O)(=O)[O-])c3ccccc3C2(C)C)c2ccccc2C1(C)C` 3.59

For `Cc1nc(N)sc1CCCN/C(N)=N/C(=O)NCCCCCCCCNC(=O)CCCCCN1/C(=C/C=C/C=C/C2=[N+](CCCCS(=O)(=O)[O-])c3ccccc3C2(C)C)c2ccccc2C1(C)C` then? 3.04

Query `Cc1nc(N)sc1CCCN/C(N)=N/C(=O)NCCCCCCCCCCNC(=O)CCCCCN1/C(=C/C=C/C=C/C2=[N+](CCCCS(=O)(=O)[O-])c3ccccc3C2(C)C)c2ccccc2C1(C)C` next 3.16

// repeat for `CC1(C)C(/C=C/C=C/C=C2\c3ccccc3C(C)(C)N2CCCCCC(=O)NCCCCCCCCNC(=O)/N=C(\N)NCCCc2nnc(N)s2)=[N+](CCCCS(=O)(=O)[O-])c2ccccc21` and report 2.41

Next compound: `Cc1nc(N)sc1CCCN/C(N)=N/C(=O)NCCCCCCNC(=O)CCCCCN1/C(=C/C=C/C=C/C2=[N+](C)c3ccccc3C2(C)C)c2ccccc2C1(C)C` 2.70

Record: `Cc1nc(N)sc1CCCN/C(N)=N/C(=O)NCCCCCCCCNC(=O)CCCCCN1/C(=C/C=C/C=C/C2=[N+](CCCCS(=O)(=O)O)c3ccccc3C2(C)C)c2cc(S(=O)(=O)[O-])ccc2C1(C)C` 2.88

`Cc1nc(N)sc1CCCN/C(N)=N/C(=O)NCCCCCCCCCCNC(=O)CCCCCN1/C(=C/C=C/C=C/C2=[N+](CCCCS(=O)(=O)O)c3ccccc3C2(C)C)c2cc(S(=O)(=O)[O-])ccc2C1(C)C` ? 3.31

* * *

For each record, write down the corresponding EC50.
target: Histamine H2 receptor (Homo sapiens); test: Agonist activity at human H2 receptor expressed in HEK293T-ARRB1 cells assessed as stimulation of beta-arrestin 1 recruitment; assay type: functional, cell-based
Remember to quote the unit after the number.

Give its EC50 value. Item: `Cc1nc(N)sc1CCCN/C(N)=N/C(=O)NCCCCCCCCNC(=O)CCCCCN1/C(=C/C=C/C=C/C2=[N+](CCCCS(=O)(=O)[O-])c3ccccc3C2(C)C)c2ccccc2C1(C)C` 617 nM

Please do the same for `CC1(C)C(/C=C/C=C/C=C2\c3ccccc3C(C)(C)N2CCCCCC(=O)NCCCCCCCCNC(=O)/N=C(\N)NCCCc2nnc(N)s2)=[N+](CCCCS(=O)(=O)[O-])c2ccccc21` as well. 339 nM

Then `CC1(C)C(/C=C/C=C/C=C2\c3ccccc3C(C)(C)N2CCCCCC(=O)NCCCCCCCCNC(=O)/N=C(\N)NCCCc2c[nH]cn2)=[N+](CCCCS(=O)(=O)[O-])c2ccccc21` ? 427 nM

Please give the result for `Cc1nc(N)sc1CCCN/C(N)=N/C(=O)NCCCCCCNC(=O)CCCCCN1/C(=C/C=C/C=C/C2=[N+](C)c3ccccc3C2(C)C)c2ccccc2C1(C)C` too. 513 nM
